subject.of.test: UniProtKB P40136
Format: biochemical
run.parameters: read-out: Ki EF AC activity
parameter: Ki (nM)
State just the number; it will be interpreted in nM.

Ask: Which Ki reading was recorded for the compound Nc1ncnc2c1ncn2CCOCP(=O)(O)OP(=O)(O)OP(=O)(O)O ?
Result: 2

====

subject.of.test: EF CC activity (Bacillus anthracis)
Sequence (P40136 whole entry, looked up): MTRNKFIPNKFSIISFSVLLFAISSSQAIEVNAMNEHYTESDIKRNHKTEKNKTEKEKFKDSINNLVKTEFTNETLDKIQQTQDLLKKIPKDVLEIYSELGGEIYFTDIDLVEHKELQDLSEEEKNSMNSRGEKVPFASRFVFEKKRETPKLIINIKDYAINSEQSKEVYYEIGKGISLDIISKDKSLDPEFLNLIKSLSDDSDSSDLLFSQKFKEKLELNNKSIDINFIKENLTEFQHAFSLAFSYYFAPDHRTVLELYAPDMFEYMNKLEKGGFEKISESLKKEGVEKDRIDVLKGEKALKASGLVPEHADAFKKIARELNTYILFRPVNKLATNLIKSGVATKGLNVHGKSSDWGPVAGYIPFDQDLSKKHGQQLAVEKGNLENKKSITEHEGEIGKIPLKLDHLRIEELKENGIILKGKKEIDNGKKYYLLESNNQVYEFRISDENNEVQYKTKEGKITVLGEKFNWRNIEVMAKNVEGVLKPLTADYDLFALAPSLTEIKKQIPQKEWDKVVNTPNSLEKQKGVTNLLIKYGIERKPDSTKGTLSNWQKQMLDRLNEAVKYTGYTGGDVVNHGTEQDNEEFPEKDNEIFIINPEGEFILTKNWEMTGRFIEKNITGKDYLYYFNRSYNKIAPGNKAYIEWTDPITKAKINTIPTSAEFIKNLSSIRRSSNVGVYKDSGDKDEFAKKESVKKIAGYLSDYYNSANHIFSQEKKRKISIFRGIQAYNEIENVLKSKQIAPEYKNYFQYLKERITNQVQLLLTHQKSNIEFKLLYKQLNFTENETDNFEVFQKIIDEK
parameter: Ki
Field note: include the unit after the figure.

Ask: What reported Ki corresponds to Nc1ncnc2c1ncn2CCOCP(=O)(O)OP(=O)(O)OP(=O)(O)O [PMEApp] on EF CC activity (Bacillus anthracis)?
Result: 4.5 nM
